# System: MRSA 97-115
# METHOD DESCRIPTION: Antibacterial activity test (MIC)
# Type: cell-based, methicillin-resistant Staphylococcus aureus
# RUN PARAMETERS: Mueller-Hinton Broth, 37° C., 20 to 24 hours
# Experimental: Regarding compounds obtained in respective Working Examples, in order to investigate antibacterial activity, minimal inhibitory concentration (MIC) was determined according to a standard method of Japanese Society of Chemotherapy. As a test bacterium, nine kinds of S. aureus 209PJC, MRSA 97-115, MRSA KM 97-53, MRSA KM97-108, VRE 49, E. coli NIHJ JC-2, P. aeruginosa PAO-1, P. aeruginosa No. 12, P. aeruginosa KM97-5 were used and, as a medium, Mueller-Hinton Broth (DIFCO) was used. […]
Parameter: minimal inhibitory concentration (MIC). Scope: all listed entries.
PARAMETER MEASURED: minimal inhibitory concentration (MIC) (µg/mL)

- COMPOUND: "CCCCCCCCNC1=NC(C)(C)N=C(NCc2ccc(Cl)c(Cl)c2)N1.Cl [12(1)]"
  REPORTED RESULT: 0.8
- COMPOUND: "CCCCCCCCC1N=C(N)NC(Nc2ccc(OC(F)(F)F)cc2)=N1.Cl (stereo not drawn) [compound 27]"
  REPORTED RESULT: 1.6
- COMPOUND: "CCCCCCCCNC1=NC(C)(C)N(c2cccc3ccccc23)C(N)=N1.Cl [compound 63]"
  REPORTED RESULT: 6.3
- COMPOUND: "CCCCCCCCNC1=NC(C)(C)N=C(NCc2ccc(C)cc2)N1 [compound 37]"
  REPORTED RESULT: 1.6
- COMPOUND: "CCCCCCCCC1N=C(N)NC(NCc2ccc(C(F)(F)F)cc2)=N1.Cl (stereo not drawn) [compound 17]"
  REPORTED RESULT: 1.6
- COMPOUND: "CCCCCCCCCC1N=C(N)NC(Nc2ccc(OC(F)(F)F)cc2)=N1.Cl (stereo not drawn) [compound 29]"
  REPORTED RESULT: 1.6
- COMPOUND: "CC(=O)O.CCCCCCCCCCCCNC1=NC(C)(C)N=C(NCC)N1 [compound 73]"
  REPORTED RESULT: 1.6
- COMPOUND: "CCCCCCCCCCCC1N=C(N)NC(NCc2ccc(C(F)(F)F)cc2)=N1.Cl (stereo not drawn) [compound 19]"
  REPORTED RESULT: 3.1
- COMPOUND: "CCCCCCCCCCCCCCNC1=NC(C)(C)N=C(N)N1.Cl [compound 72]"
  REPORTED RESULT: 1.6
